- assayed-system: T1, SARS-CoV-2 Alpha Variant RBD (SARS-CoV-2 Alpha variant)
- T1 construct: domain: RBD; coated on ELISA plates
- protocol-notes: ELISA, RBD coated
measured-quantity: EC50 (nM)
Give bare numbers, in nM.

binder	output-unit	readout-value
PP900 MBP-5HVZ-R5a-F2-H6 (VHH, Form: Dimer) VHH: QVQLVESGGGLVQPGGSLRLSCAASGSISSIEAMSWFRQAPGKQREGVATMASGGDTSYADSVKGRFTISRDNAKNTVYLQMNSLKPEDTAVYYCAAQTYRPDTWGRYTFWGQGTQVTVSS	nM	34

Here's the next entry for you.
Notebook: PP915 MBP-5HVZ-S3b-A7-H6 (VHH, Form: Dimer) VHH: QVQLVESGGGLVQPGGSLRLSCAASGSIASINAIHWVRQAPGKQREEVAAITSGGSTGYADSVKGRFTISRDNAKNTVYLQMNSLKPEDTAVYYCAAQPGQSYAVWGQGTQVTVSS , EC50 read as 0.52
